t1/2 reference
Tested on: Liver
Assay: Half life in mouse liver microsomes
Type: ADME, microsome
Conditions: microsomes

query_smiles: CC(C)c1cc(C(=O)Nc2cccc(F)c2)no1
system_name: Liver
reported_result: < 5 min

Consider the compound CC(C)c1cc(C(=O)Nc2nc3ccccc3[nH]2)no1 and give its measured t1/2. < 5 min

Endpoint output: t1/2 of Cc1c(C(=O)Nc2ccc(F)c(Cl)c2)noc1C(C)C . Value? < 5 min

Return reported t1/2; argument: CC(C)c1cc(C(=O)Nc2ccccn2)no1 > 120 min

Name the reported t1/2 value associated with the compound CC(C)c1cc(C(=O)Nc2ccccc2)no1 < 5 min

If you can, please state the reported t1/2 value of O=C(Nc1ncc(C2CCC2)s1)c1ccc(F)c(Cl)c1 . < 5 min
